# measuredOn: PARP7 (Homo sapiens, UniProt Q7Z3E1)

- molecule: "N#Cc1ccc(N2CCN(C(=O)c3cc(Oc4n[nH]c(=O)c(C(F)(F)F)c4N4CC5(C4)CC(F)(F)C5)ccn3)CC2)nc1"
  measuredOn: "PARP7 (Homo sapiens, UniProt Q7Z3E1)"
  IC50: "< 100 nM"
- molecule: "C[C@H]1CN(C(=O)c2cccc(Oc3n[nH]c(=O)c(C(F)(F)F)c3N3CC4(CCO4)C3)c2)CCN1c1ncc(C(F)(F)F)cn1"
  measuredOn: "PARP7 (Homo sapiens, UniProt Q7Z3E1)"
  IC50: "< 100 nM"
- molecule: "C#Cc1c(C)c(Oc2cccc(C(=O)N3CCN(c4ncc(C(F)(F)F)cn4)CC3)c2)n[nH]c1=O"
  measuredOn: "PARP7 (Homo sapiens, UniProt Q7Z3E1)"
  IC50: "< 100 nM"
- molecule: "CN1CC[C@@H](OCC(=O)N2CCN(c3ncc(C(F)(F)F)cn3)CC2)c2n[nH]c(=O)c(C(F)(F)F)c21 (single isomer, unassigned)"
  measuredOn: "PARP7 (Homo sapiens, UniProt Q7Z3E1)"
  IC50: "< 100 nM"
- molecule: "O=C(CC1CN(c2cc(C(F)(F)F)c(=O)[nH]n2)CCO1)N1CCN(c2ncc(C(F)(F)F)cn2)CC1 (single isomer, unassigned)"
  measuredOn: "PARP7 (Homo sapiens, UniProt Q7Z3E1)"
  IC50: "< 100 nM"
- molecule: "N#Cc1cnc(N2CCN(C(=O)CC3CN(c4cc(C(F)(F)F)c(=O)[nH]n4)c4cc(F)ccc4O3)CC2)nc1 (single isomer, unassigned) [Compound 265]"
  measuredOn: "PARP7 (Homo sapiens, UniProt Q7Z3E1)"
  IC50: "100 to 1000 nM"
- molecule: "COCc1ccc2c(c1)N(c1cc(C(F)(F)F)c(=O)[nH]n1)CC(CC(=O)N1CCN(c3ncc(C(F)(F)F)cn3)CC1)O2 (single isomer, unassigned)"
  measuredOn: "PARP7 (Homo sapiens, UniProt Q7Z3E1)"
  IC50: "< 100 nM"
- molecule: "Cn1cc(-c2ccc3c(c2)N(c2cc(C(F)(F)F)c(=O)[nH]n2)CC(CC(=O)N2CCN(c4ncc(C(F)(F)F)cn4)CC2)O3)cn1 (single isomer, unassigned)"
  measuredOn: "PARP7 (Homo sapiens, UniProt Q7Z3E1)"
  IC50: "< 100 nM"
- molecule: "Cc1c(N2C[C@H](CC(=O)N3CCN(c4ncc(C(F)(F)F)cn4)CC3)O[C@H](C)C2)n[nH]c(=O)c1C(F)(F)F (stereo in doubt)"
  measuredOn: "PARP7 (Homo sapiens, UniProt Q7Z3E1)"
  IC50: "< 100 nM"
- molecule: "O=C(CC1CN(c2n[nH]c(=O)c3cccnc23)CCO1)N1CCN(c2ncc(C(F)(F)F)cn2)CC1 (single isomer, unassigned)"
  measuredOn: "PARP7 (Homo sapiens, UniProt Q7Z3E1)"
  IC50: "> 1000 nM"
- molecule: "O=C(CC1CN(c2cc(C(F)(F)F)c(=O)[nH]n2)c2ccncc2O1)N1CCN(c2ncc(C(F)(F)F)cn2)CC1 (centres unmarked)"
  measuredOn: "PARP7 (Homo sapiens, UniProt Q7Z3E1)"
  IC50: "< 100 nM"
- molecule: "O=C(COC1CCOc2c1n[nH]c(=O)c2Cl)N1CCN(c2ncc(C(F)(F)F)cn2)CC1 (single isomer, unassigned)"
  measuredOn: "PARP7 (Homo sapiens, UniProt Q7Z3E1)"
  IC50: "< 100 nM"
- molecule: "N#CC1(c2ccnc(N3CCN(C(=O)CC4CN(c5cc(C(F)(F)F)c(=O)[nH]n5)c5cc(F)ccc5O4)CC3)n2)CC1 (single isomer, unassigned) [Compound 344]"
  measuredOn: "PARP7 (Homo sapiens, UniProt Q7Z3E1)"
  IC50: "> 1000 nM"
- molecule: "CC(C)(O)c1cnc(N2CCN(C(=O)c3cccc(Oc4n[nH]c(=O)c(C(F)(F)F)c4N4CC5(CCC5)C4)c3)CC2)nc1"
  measuredOn: "PARP7 (Homo sapiens, UniProt Q7Z3E1)"
  IC50: "< 100 nM"
- molecule: "N#Cc1ccc(N2CCN(C(=O)CC3CN(c4cc(C(F)(F)F)c(=O)[nH]n4)c4cc(C(F)F)ccc4O3)CC2)nc1 (single isomer, unassigned)"
  measuredOn: "PARP7 (Homo sapiens, UniProt Q7Z3E1)"
  IC50: "< 100 nM"
- molecule: "Cc1ccc2c(=O)[nH]nc(N3CCOC(CC(=O)N4CCN(c5ncc(C(F)(F)F)cn5)CC4)C3)c2c1 (single isomer, unassigned)"
  measuredOn: "PARP7 (Homo sapiens, UniProt Q7Z3E1)"
  IC50: "< 100 nM"
- molecule: "CN1CC2(C1)CN(c1c(Oc3cccc(C(=O)N4CCN(c5ncc(C(F)(F)F)cn5)CC4)c3)n[nH]c(=O)c1C(F)(F)F)C2"
  measuredOn: "PARP7 (Homo sapiens, UniProt Q7Z3E1)"
  IC50: "< 100 nM"
- molecule: "Cc1c(Oc2cc(C(=O)N3CCN(c4ncc(C(F)(F)F)cn4)CC3)ccc2Cl)n[nH]c(=O)c1C(F)(F)F"
  measuredOn: "PARP7 (Homo sapiens, UniProt Q7Z3E1)"
  IC50: "100 to 1000 nM"
- molecule: "C[C@@H]1CN(C(=O)c2cc(Oc3n[nH]c(=O)c(C(F)(F)F)c3N3CC4(C3)CC(F)(F)C4)ccn2)CCN1c1cnc(C(F)(F)F)cn1"
  measuredOn: "PARP7 (Homo sapiens, UniProt Q7Z3E1)"
  IC50: "< 100 nM"
- molecule: "O=C(c1cc(Oc2n[nH]c(=O)c(C(F)(F)F)c2N2CC3(CCC3)C2)ccn1)N1CCN(c2cnc(C(F)(F)F)cn2)CC1"
  measuredOn: "PARP7 (Homo sapiens, UniProt Q7Z3E1)"
  IC50: "< 100 nM"

====

# measuredOn: PARP7 (Homo sapiens)
# Sequence (Q7Z3E1 1-657): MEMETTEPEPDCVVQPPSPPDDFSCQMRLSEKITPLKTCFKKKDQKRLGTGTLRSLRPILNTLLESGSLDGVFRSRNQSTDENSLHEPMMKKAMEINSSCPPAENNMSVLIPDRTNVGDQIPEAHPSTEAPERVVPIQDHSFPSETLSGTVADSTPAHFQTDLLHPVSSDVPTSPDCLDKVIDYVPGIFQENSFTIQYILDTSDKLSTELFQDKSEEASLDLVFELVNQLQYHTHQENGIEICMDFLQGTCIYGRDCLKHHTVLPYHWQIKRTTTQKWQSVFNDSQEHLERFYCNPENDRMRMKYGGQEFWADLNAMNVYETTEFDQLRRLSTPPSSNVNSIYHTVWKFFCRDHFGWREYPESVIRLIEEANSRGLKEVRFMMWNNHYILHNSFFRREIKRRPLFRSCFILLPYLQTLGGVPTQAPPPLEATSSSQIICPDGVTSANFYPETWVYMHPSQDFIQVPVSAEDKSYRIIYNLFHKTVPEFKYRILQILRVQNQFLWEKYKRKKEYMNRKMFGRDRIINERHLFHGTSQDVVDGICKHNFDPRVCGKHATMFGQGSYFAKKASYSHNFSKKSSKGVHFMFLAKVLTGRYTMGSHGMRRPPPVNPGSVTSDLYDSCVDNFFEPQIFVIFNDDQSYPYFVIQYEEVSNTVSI

- compound: "O=C(c1cccc(Oc2n[nH]c(=O)c(C(F)(F)F)c2N2CC3(CCC3)C2)c1)N1CCN(c2ncc(OC(F)(F)F)cn2)CC1"
  IC50: "< 100 nM"
- compound: "N#Cc1cnc(N2CCN(C(=O)CC3CN(c4cc(C(F)(F)F)c(=O)[nH]n4)c4cc(C(F)F)ccc4O3)CC2)nc1 (single isomer, unassigned)"
  IC50: "< 100 nM"
- compound: "N#Cc1ccc(N2CCN(C(=O)c3cc(Oc4n[nH]c(=O)c(C(F)(F)F)c4N4CC5(CCC5)C4)ccn3)CC2)nc1"
  IC50: "< 100 nM"
- compound: "N#CC1(c2ccnc(N3CCN(C(=O)CC4CN(c5cc(C(F)(F)F)c(=O)[nH]n5)c5cc(Cl)ccc5O4)CC3)n2)CC1 (single isomer, unassigned)"
  IC50: "> 1000 nM"
- compound: "O=C(CC1CN(c2cc(C(F)(F)F)c(=O)[nH]n2)c2ccccc2O1)N1CCN(c2ccc(C(F)(F)F)cn2)CC1 (single isomer, unassigned)"
  IC50: "100 to 1000 nM"
- compound: "O=C(CC1CN(c2cc(C(F)(F)F)c(=O)[nH]n2)c2cc(Cl)ccc2O1)N1CCN(c2ncc(C(F)(F)F)cn2)CC1 (single isomer, unassigned)"
  IC50: "< 100 nM"
- compound: "Cc1c(Oc2ccc(Cl)c(C(=O)N3CCN(c4ncc(C(F)(F)F)cn4)CC3)c2)n[nH]c(=O)c1C(F)(F)F"
  IC50: "< 100 nM"
- compound: "N#Cc1cnc(N2CCN(C(=O)CC3CN(c4cc(C(F)(F)F)c(=O)[nH]n4)c4ccccc4O3)CC2)nc1 (single isomer, unassigned) [Compound 251]"
  IC50: "100 to 1000 nM"
- compound: "O=C(c1cc(Oc2n[nH]c(=O)c(C(F)(F)F)c2N2CC3(C2)CC(F)(F)C3)ccn1)N1CCN(c2ncc(Cl)cn2)CC1"
  IC50: "< 100 nM"
- compound: "O=C(CC1CN(c2cc(C(F)(F)F)c(=O)[nH]n2)c2cc(F)ccc2O1)N1CCN(c2ncc(C(F)(F)F)cn2)CC1 (single isomer, unassigned)"
  IC50: "< 100 nM"
- compound: "Cc1cccc2c(N3CCOC(CC(=O)N4CCN(c5ncc(C(F)(F)F)cn5)CC4)C3)n[nH]c(=O)c12 (single isomer, unassigned)"
  IC50: "100 to 1000 nM"
- compound: "C[C@@H]1CN(c2cc(C(F)(F)F)c(=O)[nH]n2)C[C@H](CC(=O)N2CCN(c3ncc(C(F)(F)F)cn3)CC2)O1 (stereo in doubt)"
  IC50: "100 to 1000 nM"
- compound: "O=C(c1cccc(Oc2n[nH]c(=O)c(C(F)(F)F)c2N2CC3(CCO3)C2)c1)N1CC2CCC(C1)N2c1ncc(C(F)(F)F)cn1"
  IC50: "< 100 nM"
- compound: "N#CC1(c2ccc3c(c2)N(c2cc(C(F)(F)F)c(=O)[nH]n2)CC(CC(=O)N2CCN(c4ncc(C(F)(F)F)cn4)CC2)O3)CC1 (single isomer, unassigned) [Compound 338]"
  IC50: "< 100 nM"
- compound: "C#Cc1ccc2c(N3CCOC(CC(=O)N4CCN(c5ncc(C(F)(F)F)cn5)CC4)C3)n[nH]c(=O)c2c1 (single isomer, unassigned)"
  IC50: "< 100 nM"
